Test system: foxtail, giant (giant foxtail, Setaria faberii)
Assay: Test C greenhouse herbicide test, pre- and postemergence
Assay type: in vivo
Conditions: postemergence, 62 g ai/ha; scale 0 to 100, 0 no effect, 100 complete control
Below, each entry is listed with its recorded Foxtail, Giant plant response rating.
Observable: Foxtail, Giant plant response rating

>  <Chemical Smiles>
COc1nn(C)c(=O)c(-c2c(C)ccc3ccccc23)c1OC(=O)OC(C)C

>  <Endpoint Result>
55

$$$$
>  <Chemical Smiles>
CCC(=O)Oc1c(C)nn(C)c(=O)c1-c1c(C)sc2ccc(C)cc12

>  <Endpoint Result>
30

$$$$
>  <Chemical Smiles>
COc1nn(C)c(=O)c(-c2c(C)sc3ccc(Cl)cc23)c1O

>  <Endpoint Result>
45

$$$$
>  <Chemical Smiles>
CCOC(=O)Oc1c(C)nn(C)c(=O)c1-c1c(CC)ccc2ccccc12

>  <Endpoint Result>
35

$$$$
>  <Chemical Smiles>
COc1nn(C)c(=O)c(-c2c(C)sc3ccccc23)c1O

>  <Endpoint Result>
40

$$$$
>  <Chemical Smiles>
CC(=O)Oc1c(C)nn(C)c(=O)c1-c1c(C)sc2ccc(C)cc12

>  <Endpoint Result>
35

$$$$
>  <Chemical Smiles>
Cc1ccc2ccccc2c1-c1c(O)c(C)nn(C)c1=O

>  <Endpoint Result>
60

$$$$
>  <Chemical Smiles>
CC(=O)Oc1c(C)nn(C)c(=O)c1-c1c(C)oc2c(C)cc(C)cc12

>  <Endpoint Result>
60

$$$$
>  <Chemical Smiles>
CCC(=O)Oc1c(C)nn(C)c(=O)c1-c1c(C)sc2c(C)cc(C)cc12

>  <Endpoint Result>
80

$$$$
>  <Chemical Smiles>
CCOC(=O)Oc1c(C)nn(C)c(=O)c1-c1c(C)sc2ccc(C)cc12

>  <Endpoint Result>
25

$$$$
